- measurement-target: cyclic GMP specific phosphodiesterase (PDE 5) (Homo sapiens, UniProt O76074)
- Construct: was isolated from human platelet lysates by ion exchange chromatography using a Mono-Q column
- assay-overview: PDE 5 inhibition, enzyme isolated from human platelet lysates, [3H]-cyclic GMP substrate
- condition-label: enzyme from human platelet lysates (Mono-Q); 0.25 mM [3H]-cyclic GMP as substrate; read-out: IC50 PDE5
pIC50: −log10 of the molar value.
observable: pIC50

>>> quantitative_readout("CCCn1c(=O)n2cnnc2c2[nH]c(-c3cc(S(=O)(=O)N4CCN5CCC[C@H]5C4)ccc3OCC)c(Cl)c21 [Example 75]")
9.72
>>> quantitative_readout("CCCOc1ccc(S(=O)(=O)NCCO)cc1-c1[nH]c2c(c1Cl)n(CCC)c(=O)n1cnnc21 [Example 50]")
9.82
>>> quantitative_readout("CCCn1c(=O)n2cnnc2c2[nH]c(-c3cc(S(=O)(=O)N4C[C@@H]5C[C@H]4CN5C)ccc3OCC)c(Cl)c21 [Example 79]")
9.72

a. C=CCN1CCN(S(=O)(=O)c2ccc(OCCC)c(-c3[nH]c4c(c3Cl)n(CCC)c(=O)n3cnnc43)c2)CC1 [Example 45]
b. CCCn1c(=O)n2cnnc2c2[nH]c(-c3cc(S(=O)(=O)N4CCCN(C)CC4)ccc3OCC)c(Cl)c21 [Example 11]
Problem: Of a and b , whose reported pIC50 is the larger number? Select an item and report its label.
Result: b

----------
- measurement-target: cyclic GMP specific phosphodiesterase (PDE 5) (Homo sapiens, UniProt O76074)
- Construct: was isolated from human platelet lysates by ion exchange chromatography using a Mono-Q column
- assay-overview: PDE 5 inhibition, enzyme isolated from human platelet lysates, [3H]-cyclic GMP substrate
- condition-label: enzyme from human platelet lysates (Mono-Q); 0.25 mM [3H]-cyclic GMP as substrate; read-out: IC50 PDE5
pIC50: −log10 of the molar value.
observable: pIC50

Some solved entries appear below for comparison.
>>> quantitative_readout("CCCOc1ccc(S(=O)(=O)N2CCNCC2)cc1-c1[nH]c2c(c1Br)n(CCC)c(=O)n1cnnc21 [Example 74]")
9.60
>>> quantitative_readout("CCCOc1ccc(S(=O)(=O)NC2CC(C)(C)NC(C)(C)C2)cc1-c1[nH]c2c(c1Cl)n(CCC)c(=O)n1cnnc21 [Example 41]")
9.77
>>> quantitative_readout("CCCOc1ccc(S(=O)(=O)N2CCN(CCCO)CC2)cc1-c1[nH]c2c(c1Cl)n(CCC)c(=O)n1cnnc21 [Example 34]")
9.66

a. CCCOc1ccc(S(=O)(=O)N2CCN(CCO)CC2)cc1-c1[nH]c2c(c1Br)n(CCC)c(=O)n1cnnc21 [Example 73]
b. CCCn1c(=O)n2cnnc2c2[nH]c(-c3cc(S(=O)(=O)N4CCN(CCOCC)CC4)ccc3OCC)c(Cl)c21 [Example 24]
Problem: Consider a and b . Which of these has its pIC50 at a higher number? Please respond with the label that marks your chosen entry.
Result: b
(b: 10.38, a: 9.48)

a. CCCOc1ccc(S(=O)(=O)N2CCN(C)CC2)cc1-c1[nH]c2c(c1Br)n(CCC)c(=O)n1cnnc21 [Example 58]
b. CCCOc1ccc(S(=O)(=O)N2CCCN(CCO)CC2)cc1-c1[nH]c2c(c1Br)n(CCC)c(=O)n1cnnc21 [Example 71]
Problem: Which numeric pIC50 is bigger, that of a or that of b ? Selection: enter the item's label.
Result: b
